Target: P2X7 (Homo sapiens (Human), UniProt Q99572)
Sequence (Q99572 whole entry): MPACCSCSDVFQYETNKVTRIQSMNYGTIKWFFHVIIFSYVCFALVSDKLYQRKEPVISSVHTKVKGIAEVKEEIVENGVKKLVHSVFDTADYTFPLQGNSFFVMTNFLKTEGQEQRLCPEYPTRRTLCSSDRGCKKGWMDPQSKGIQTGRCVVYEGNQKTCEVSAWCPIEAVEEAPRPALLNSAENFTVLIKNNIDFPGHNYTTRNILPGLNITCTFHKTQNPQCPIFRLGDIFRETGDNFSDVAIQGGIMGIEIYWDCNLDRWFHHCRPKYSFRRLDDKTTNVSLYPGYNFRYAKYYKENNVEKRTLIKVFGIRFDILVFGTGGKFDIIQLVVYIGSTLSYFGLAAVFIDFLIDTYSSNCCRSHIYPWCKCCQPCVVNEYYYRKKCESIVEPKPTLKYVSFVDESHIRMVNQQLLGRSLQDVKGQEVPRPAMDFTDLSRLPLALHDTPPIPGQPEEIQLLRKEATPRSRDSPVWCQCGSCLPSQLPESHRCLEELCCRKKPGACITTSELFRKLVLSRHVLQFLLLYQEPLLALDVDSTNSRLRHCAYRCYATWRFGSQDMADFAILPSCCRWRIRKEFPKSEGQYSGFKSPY
Experiment: P2X7 antagonism in human peripheral blood mononuclear cells (PBMCs), IL-1β release after LPS + Bz-ATP (ELISA)
Format: cell-based
Details: Table 3 (additional runs), 10 μM compound, 0.5 mM Bz-ATP
PBMC 10 μM (% control) by entry:
metric: PBMC 10 μM (% control)

compound | metric | reported-measurement
C[C@@H]1c2ncnc(-c3ccn[nH]3)c2CCN1C(=O)c1ccc(F)c(Cl)c1Cl (single isomer, unassigned) | PBMC 10 μM (% control) | −1.5 % control
C[C@H]1c2ncnc(-c3ccn[nH]3)c2CCN1C(=O)c1ccc(F)c(C(F)(F)F)c1Cl (single isomer, unassigned) | PBMC 10 μM (% control) | 0.1 % control
C[C@@H]1c2ncnc(-c3ccn[nH]3)c2CCN1C(=O)c1ccc(F)c(C(F)(F)F)c1Cl (single isomer, unassigned) | PBMC 10 μM (% control) | −4.4 % control
C[C@@H]1c2ncnc(-c3ccn[nH]3)c2CCN1C(=O)c1cccc(C(F)(F)F)c1Cl (single isomer, unassigned) | PBMC 10 μM (% control) | −2.1 % control
C[C@@H]1c2ncnc(-c3ccn[nH]3)c2CCN1C(=O)c1ccc(Cl)c(F)c1Cl (single isomer, unassigned) | PBMC 10 μM (% control) | 4.1 % control
Cc1nc2c(c(-c3ccn[nH]3)n1)C[C@H](C)N(C(=O)c1ccc(F)c(Cl)c1Cl)C2 (single isomer, unassigned) | PBMC 10 μM (% control) | −1.0 % control
Cc1nc2c(c(-c3ccn[nH]3)n1)C[C@@H](C)N(C(=O)c1ccc(F)c(Cl)c1Cl)C2 (single isomer, unassigned) | PBMC 10 μM (% control) | 21.0 % control
Cc1nc2c(c(-c3ccn[nH]3)n1)C[C@@H](C)N(C(=O)c1cccc(Cl)c1Cl)C2 (single isomer, unassigned) | PBMC 10 μM (% control) | −0.5 % control
Cc1nc2c(c(-c3ccn[nH]3)n1)C[C@@H](C)N(C(=O)c1cccc(C(F)(F)F)c1Cl)C2 (single isomer, unassigned) | PBMC 10 μM (% control) | 5.0 % control
Cc1nc2c(c(-c3ccn[nH]3)n1)C[C@H](C)N(C(=O)c1cccc(C(F)(F)F)c1C)C2 (single isomer, unassigned) | PBMC 10 μM (% control) | 2.6 % control
Cc1nc2c(c(-c3ccn[nH]3)n1)C[C@H](C)N(C(=O)c1ccc(Cl)c(F)c1Cl)C2 | PBMC 10 μM (% control) | −2.6 % control
Cc1nc2c(c(-c3ccn[nH]3)n1)C[C@H](C)N(C(=O)c1ccc(F)c(C(F)(F)F)c1Cl)C2 (single isomer, unassigned) | PBMC 10 μM (% control) | 3.9 % control
Cc1nc2c(c(-c3ccn[nH]3)n1)C[C@@H](C)N(C(=O)c1ccc(F)cc1Cl)C2 (single isomer, unassigned) | PBMC 10 μM (% control) | −8.8 % control

Entry source: patent US9604982B2
